system-tested: STING (Homo sapiens, UniProt Q86WV6, G230A/H232R/R293Q/R71H)
Sequence (Q86WV6 whole entry R71H/G230A/H232R/R293Q): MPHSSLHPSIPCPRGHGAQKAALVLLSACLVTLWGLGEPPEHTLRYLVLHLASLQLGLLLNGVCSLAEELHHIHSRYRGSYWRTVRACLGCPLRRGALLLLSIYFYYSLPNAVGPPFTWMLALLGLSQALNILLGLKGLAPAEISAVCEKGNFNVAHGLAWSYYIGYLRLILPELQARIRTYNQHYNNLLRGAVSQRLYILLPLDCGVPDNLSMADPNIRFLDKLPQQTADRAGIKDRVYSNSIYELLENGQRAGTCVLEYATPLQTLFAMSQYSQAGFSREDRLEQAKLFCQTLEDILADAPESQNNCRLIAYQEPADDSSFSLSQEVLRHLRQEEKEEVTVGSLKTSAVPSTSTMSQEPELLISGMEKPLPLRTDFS
assay-summary: STING reporter assay: luciferase reporter activity in THP1-Dual KO-IFNAR2 cells stimulated with 2′3′cGAMP
measurement-context: 15 μM 2′3′cGAMP, 24h, read-out: hSTING EC50
readout-name: EC50

Known results for molecules:
CCc1ccc(-n2cc(-c3ccc4[nH]cc(NC(=O)CO)c4c3)cn2)cc1 200 to 1000 nM
CC(=O)Nc1c[nH]c2ccc(-c3cnn(-c4ccc(C(F)(F)F)cc4)c3)cc12 40 to 200 nM
CCC(=O)Nc1c[nH]c2ccc(-c3cnn(C4CCCC4)c3)cc12 5000 to 100000 nM

Kindly review the next molecule as well.
Dear colleague, I am looking for the recorded EC50 of the following molecule: CCC(=O)Nc1c[nH]c2ccc(-c3cccc(C4CC4)c3)cc12
1000 to 5000 nM

---

system-tested: STING (Homo sapiens, UniProt Q86WV6, G230A/H232R/R293Q/R71H)
assay-summary: STING reporter assay: luciferase reporter activity in THP1-Dual KO-IFNAR2 cells stimulated with 2′3′cGAMP
measurement-context: 15 μM 2′3′cGAMP, 24h, read-out: hSTING EC50
Reported EC50 is given for each of the following molecules.

molecule	EC50
CCC(=O)Nc1c[nH]c2ccc(-c3cnn(-c4ccc(CC)cc4)c3)cc12 [Compound 151]	0.04 to 0.2 µM

Dear colleague, I am looking for the recorded EC50 of the following molecule: CCC(=O)Nc1c[nH]c2ccc(-c3cnn(CC4CC4)c3)cc12 [Compound 148]
5 to 100 µM

Likewise for O=C(Nc1c[nH]c2ccc(-c3cnn(-c4ccc(C(F)(F)F)cc4)c3)cc12)c1ncc[nH]1 [Compound 260] ?
5 to 100 µM

Likewise for CCC(=O)Nc1c[nH]c2ccc(-c3ccc(N4CCCC4)nc3)cc12 [Compound 147] ?
5 to 100 µM

Likewise for O=C1CCC(C(=O)Nc2c[nH]c3ccc(-c4cnn(-c5ccc(C(F)(F)F)cc5)c4)cc23)=NN1 [Compound 234] ?
1 to 5 µM

Likewise for CC(=O)Nc1c[nH]c2ccc(-c3cnn(-c4ccc(C5CC(F)(F)C5)c(Cl)c4)c3)cc12 [Compound 169] ?
0.2 to 1 µM

Likewise for CCC(=O)Nc1c[nH]c2ccc(-c3cnn(-c4ccccn4)c3)cc12 [Compound 138] ?
5 to 100 µM

---

system-tested: STING (Homo sapiens, UniProt Q86WV6, G230A/H232R/R293Q/R71H)
assay-summary: STING reporter assay: luciferase reporter activity in THP1-Dual KO-IFNAR2 cells stimulated with 2′3′cGAMP
measurement-context: 15 μM 2′3′cGAMP, 24h, read-out: hSTING EC50
Reported EC50 is given for each of the following compounds.

compound	EC50
CCC(=O)Nc1c[nH]c2ccc(-c3cc(C#N)cs3)cc12	1 to 5 µM
CC(NS(C)(=O)=O)C(=O)Nc1c[nH]c2cc(F)c(-c3cnn(-c4ccc(C(F)(F)F)cc4)c3)cc12 (centres unmarked)	1 to 5 µM
O=C(Nc1c[nH]c2ccc(-c3cnn(-c4ccc(C(F)(F)F)cc4)c3)cc12)C1CC1(F)F (centres unmarked)	0.2 to 1 µM
O=C(CNCC(F)(F)F)Nc1c[nH]c2ccc(-c3cnn(-c4ccc(C(F)(F)F)cc4)c3)cc12	1 to 5 µM
CCC(=O)Nc1c[nH]c2ccc(N3CCN(c4ccccc4)CC3)cc12	5 to 100 µM

Dear colleague, I am looking for the recorded EC50 of the following compound: CC(=O)Nc1c[nH]c2ccc(-c3cnn(Cc4cnc(C5CCC(F)(F)CC5)c(F)c4)c3)cc12
5 to 100 µM

Likewise for CC(=O)Nc1c[nH]c2ccc(-c3cnn(-c4ccc(C(F)(F)F)cc4Cl)c3)cc12 ?
0.04 to 0.2 µM

Likewise for COCCOCCC(=O)Nc1c[nH]c2ccc(-c3cnn(-c4ccc(C(F)(F)F)cc4)c3)cc12 ?
0.2 to 1 µM
